Exercise: for every item that follows, state its recorded growth.
Test system: NCI-H23 lung
Experiment: NCI-60 one-dose screen, 48 h (100 = growth as untreated, 0 = no growth, -100 = all killed)
Conditions: 10 µM unless noted
Compounds without any hit were thinned out: in the full panel of roughly 83,000, 20% have a hit.
Numbers only, in %.

Past entries and their recorded results:
OCC1OC(O)C(O)C(O)C1O (stereo not given) :: 102
OC1COC(OCc2ccccc2)C(O)C1O (stereo not given) :: 106
N#CC(C#N)N=Nc1cc(Cl)ccc1Cl :: 106
Cc1cc(-c2cc(C)c(O)c(C)c2)cc(C)c1O :: 87.3
C#CCOC(=O)Nc1ccccc1 :: 98.9

For each listed entry, give its growth.
1. O=[N+]([O-])c1cccc(SSc2cccc([N+](=O)[O-])c2)c1
2. ClCCOCCOc1ccc(C2CCCCC2)cc1
3. CCc1cc(C)cc(O)c1
4. Brc1ccc(SSc2ccc(Br)cc2)cc1
5. COc1cc(C(O)C2C(=O)OCC2C2(c3ccc4c(c3)OCO4)SCCCS2)cc(OC)c1OC (stereo not given)
6. CC1(C)COC(=S)N1
7. O=c1n(CC2CO2)c(=O)n(CC2CO2)c(=O)n1CC1CO1 (stereo not given)

A:
1: 98.8; 2: 113; 3: 107; 4: 72.5; 5: 93.8; 6: 101; 7: 69.2

For each listed entry, give its growth.
1. NN1CCOC(c2ccccc2)C1 (stereo not given)
2. COc1ccc2cc1Oc1ccc(cc1)C[C@H]1c3cc(c(OC)cc3CCN1C)Oc1c(OC)c(OC)cc3c1[C@H](C2)N(C)CC3
3. CCCCCCCCCCNC(=O)CI
4. Cl
5. CCCCOC(=O)/C=C\C(=O)NC(N)=O
6. Cn1cnc([N+](=O)[O-])c1Sc1ncn[nH]1
7. O=C(Cc1ccccc1)c1ccc(O)c(Cl)c1
8. O=C(/C=C/c1ccccc1)c1ccccc1

A:
104
92.7
-48.8
97.5
85.7
91.7
24
84.6

###

Exercise: for every item that follows, state its recorded growth.
Test system: SK-MEL-2 melanoma
Assay: NCI-60 one-dose screen, 48 h (100 = growth as untreated, 0 = no growth, -100 = all killed)
Conditions: 10 µM unless noted
Compounds without any hit were thinned out: in the full panel of roughly 83,000, 20% have a hit.
Answers are plain numbers, in %.

Past entries and their recorded results:
CC(C)(O)C(=O)O :: 112
Cc1cc2ccccc2cn1 :: 107
O=C1C=C(Nc2ccccc2)c2ccccc2C1=O :: 101
CC1=C/C(O)CC(=O)Cc2nc(co2)C(=O)N2CCC=C2C(=O)OC(C(C)C)C(C)/C=C\C(=O)NC/C=C\1 (centres undefined) :: 21.8
O=C1OC(c2ccccc2)=N/C1=C\c1ccccc1 :: 116

For each listed entry, give its growth.
1. CC1CCC(C(C)C)C(NNC(N)=O)C1 (centres undefined)
2. Cc1cc(-c2ccc(N=Nc3ccc4c(S(=O)(=O)O)cc(S(=O)(=O)O)c(N)c4c3O)c(C)c2)ccc1N=Nc1ccc2c(S(=O)(=O)O)cc(S(=O)(=O)O)c(N)c2c1O
3. COc1ccc2cc1Oc1ccc(cc1)C[C@H]1c3cc(c(OC)cc3CCN1C)Oc1c(OC)c(OC)cc3c1[C@H](C2)N(C)CC3

A:
[107, 112, 131]

Q: Recorded growth of N#CC(C#N)N=Nc1ccc(Cl)cc1 , please.
A: 77.3

Reference source for all entries: PubChem BioAssay (NCI)
